Listed compounds paired with reported In Vivo LVh 3 mg·kg 8 h (remaining FAAH activity, % of control)
# target.desc: FAAH (Mus musculus)
# Construct: A fragment of liver, left lung lobe and brain without cerebellum were removed; from tissue; host or cells: male NMRI mice; brain (without cerebellum) and liver homogenates
# Sequence (O08914 1-579): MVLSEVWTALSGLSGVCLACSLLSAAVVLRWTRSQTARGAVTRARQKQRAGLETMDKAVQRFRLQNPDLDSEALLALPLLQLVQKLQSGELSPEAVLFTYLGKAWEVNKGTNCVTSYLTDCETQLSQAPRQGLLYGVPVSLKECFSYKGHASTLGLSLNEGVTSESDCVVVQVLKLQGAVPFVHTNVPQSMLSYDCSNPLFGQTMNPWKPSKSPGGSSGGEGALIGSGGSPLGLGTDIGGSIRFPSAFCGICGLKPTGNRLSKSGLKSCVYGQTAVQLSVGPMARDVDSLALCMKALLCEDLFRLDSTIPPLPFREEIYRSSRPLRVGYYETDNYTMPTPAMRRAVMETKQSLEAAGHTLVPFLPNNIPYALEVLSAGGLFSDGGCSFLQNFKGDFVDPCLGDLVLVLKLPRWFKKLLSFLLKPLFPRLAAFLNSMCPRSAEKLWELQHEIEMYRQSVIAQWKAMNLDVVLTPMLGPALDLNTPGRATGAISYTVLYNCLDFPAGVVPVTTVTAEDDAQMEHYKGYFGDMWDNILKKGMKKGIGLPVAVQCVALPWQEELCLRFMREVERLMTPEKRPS
# test.protocol: In vivo FAAH inhibition after oral dosing, remaining activity in liver homogenate (LVh, peripheral tissue)
# Parameters: species or system NMRI mice
# test.parameters: liver homogenate, 3 mg/kg, 8 h after dosing; low value = strong inhibitor
Structures can show the parent of a compound that is named as a salt.
property.label: In Vivo LVh 3 mg·kg 8 h (remaining FAAH activity, % of control)

compound | target.desc | endpoint.value
CN(C(=O)n1cnc(-c2cccnc2)c1)C12CC3CC(CC(C3)C1)C2 | FAAH (Mus musculus) | 96.1 % of control
COc1ccc(-c2cn(C(=O)N(C)C3CCCCC3)cn2)cc1C(N)=O | FAAH (Mus musculus) | 16.7 % of control
CN(C(=O)n1cnc(-c2ccc[n+]([O-])c2)c1)C1CCCCC1 | FAAH (Mus musculus) | 1.7 % of control
CN(C(=O)n1cnc(-c2ccccc2)c1)C1CCN(Cc2ccccc2)CC1 | FAAH (Mus musculus) | 1.6 % of control
CN(C(=O)n1cnc(-c2cccc(-c3ccccc3)c2)c1)C12CC3CC(CC(C3)C1)C2 | FAAH (Mus musculus) | 112.4 % of control
CN(C(=O)n1cnc(-c2ccccc2)c1)C1CCOCC1 | FAAH (Mus musculus) | 1.8 % of control
CC1(C)COCN1C(=O)n1cnc(-c2ccccc2)c1Cl | FAAH (Mus musculus) | 32.4 % of control
Cc1nc(-c2ccccc2)nn1C(=O)N1COCC1(C)C | FAAH (Mus musculus) | 93 % of control
CN(C(=O)n1cnc(-c2cccc([N+](=O)[O-])c2)c1)C1CCCCC1 | FAAH (Mus musculus) | 2.4 % of control
CN(C(=O)n1cnc(-c2ccc(S(=O)(=O)N3CCC(OCc4ccccc4)CC3)cc2)c1)C1CCCCC1 | FAAH (Mus musculus) | 95.4 % of control
CN(C(=O)n1cnc(-c2cccc(C(=O)NO)c2)c1)C1CCCCC1 | FAAH (Mus musculus) | 0.5 % of control
CN(C(=O)n1cnc(-c2ccc(-c3nn[nH]n3)cc2)c1)C1CCCCC1 | FAAH (Mus musculus) | 51.3 % of control
COc1ccc(-c2cn(C(=O)N(C)C3CCCCC3)cn2)cc1-c1nn[nH]n1 | FAAH (Mus musculus) | 6.1 % of control
CC1(C)COCN1C(=O)n1nnc2cccnc21 | FAAH (Mus musculus) | 9.6 % of control
COc1ccc(-c2cn(C(=O)N(C)C3CCOCC3)cn2)cc1N | FAAH (Mus musculus) | 4.3 % of control
COc1cccc(-c2cn(C(=O)N3COCC3(C)C)cn2)c1 | FAAH (Mus musculus) | 18.5 % of control
CN(C(=O)n1cnc(-c2ccc(/C(N)=N/O)cc2)c1)C1CCCCC1 | FAAH (Mus musculus) | 16.3 % of control
CN(C(=O)n1cnc(-c2ccc(O)cc2)c1)C1CCN(Cc2ccccc2)CC1 [Compound no. 451, hydrobromide] | FAAH (Mus musculus) | 0.3 % of control

###

# target.desc: FAAH (Mus musculus, UniProt O08914)
# Construct: A fragment of liver, left lung lobe and brain without cerebellum were removed; from tissue; host or cells: male NMRI mice; brain (without cerebellum) and liver homogenates
# test.protocol: In vivo FAAH inhibition after oral dosing, remaining activity in liver homogenate (LVh, peripheral tissue)
# Design: species or system NMRI mice
# test.parameters: liver homogenate, 3 mg/kg, 8 h after dosing; low value = strong inhibitor
property.label: In Vivo LVh 3 mg·kg 8 h (remaining FAAH activity, % of control)

molecule | target.desc | endpoint.value
COc1ccc(-c2cn(C(=O)N(C)C3CCCCC3)cn2)cc1F [Compound 314] | FAAH (Mus musculus, UniProt O08914) | 48 % of control
CN(C(=O)n1cnc(-c2ccc(O)c(-c3nn[nH]n3)c2)c1)C1CCCCC1 [Compound no. 439] | FAAH (Mus musculus, UniProt O08914) | 58.6 % of control
Br.CN(C(=O)n1cnc(-c2ccc(O)c([N+](=O)[O-])c2)c1)C1CCN(Cc2ccccc2)CC1 [Compound no. 457] | FAAH (Mus musculus, UniProt O08914) | 10.6 % of control
CN(C(=O)n1cnc(-c2ccc(OC(F)F)cc2)c1)C1CCCCC1 [Compound 276] | FAAH (Mus musculus, UniProt O08914) | 2 % of control

###

Item-by-item account of In Vivo BRh 3 mg/kg 8 h, remaining FAAH activity
# target.desc: FAAH (Mus musculus)
# Construct: A fragment of liver, left lung lobe and brain without cerebellum were removed; from tissue; host or cells: male NMRI mice; brain (without cerebellum) and liver homogenates
# Sequence (O08914 1-579): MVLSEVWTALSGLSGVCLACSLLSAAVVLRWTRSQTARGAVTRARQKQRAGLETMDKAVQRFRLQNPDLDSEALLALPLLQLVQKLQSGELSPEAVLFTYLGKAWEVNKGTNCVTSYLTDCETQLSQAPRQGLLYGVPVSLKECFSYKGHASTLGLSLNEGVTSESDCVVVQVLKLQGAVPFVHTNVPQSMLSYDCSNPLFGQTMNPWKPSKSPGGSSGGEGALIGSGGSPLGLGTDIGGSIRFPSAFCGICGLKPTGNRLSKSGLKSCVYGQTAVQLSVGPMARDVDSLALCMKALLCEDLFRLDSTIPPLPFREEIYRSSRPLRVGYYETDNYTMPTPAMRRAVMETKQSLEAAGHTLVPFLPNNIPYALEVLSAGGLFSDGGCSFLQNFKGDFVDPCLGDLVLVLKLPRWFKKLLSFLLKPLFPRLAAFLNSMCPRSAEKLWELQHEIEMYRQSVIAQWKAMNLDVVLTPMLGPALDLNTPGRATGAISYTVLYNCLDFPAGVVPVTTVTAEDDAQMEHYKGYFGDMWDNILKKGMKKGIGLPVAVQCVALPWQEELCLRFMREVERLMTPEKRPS
# test.protocol: In vivo FAAH inhibition after oral dosing, remaining activity in brain homogenate (BRh, central nervous tissue)
# Set-up: species or system NMRI mice
# test.parameters: brain homogenate, 3 mg/kg, 8 h
property.label: In Vivo BRh 3 mg/kg 8 h, remaining FAAH activity

compound | endpoint.value
CN(CCOCc1ccccc1)C(=O)n1nnc2ccccc21 [Compound 156] | 67.2 % of control
COc1ccc(-c2cn(C(=O)N(C)C3CCCCC3)cn2)cc1OC [Compound 217] | 6 % of control
CC1(C)COCN1C(=O)n1nnc2ccc(-c3cccc(C(N)=O)c3)cc21 [Compound 163] | 6.3 % of control
NC(=O)c1ccc(Oc2ccc(-c3ncn(C(=O)N4CCOCC4)n3)cc2)cc1 [Compound 147] | 124.4 % of control
COc1ccc(OCCN(C)C(=O)n2nnc3ccccc32)cc1 [Compound 157] | 5.2 % of control

###

# target.desc: FAAH (Mus musculus)
# Construct: A fragment of liver, left lung lobe and brain without cerebellum were removed; from tissue; host or cells: male NMRI mice; brain (without cerebellum) and liver homogenates
# Sequence (O08914 1-579): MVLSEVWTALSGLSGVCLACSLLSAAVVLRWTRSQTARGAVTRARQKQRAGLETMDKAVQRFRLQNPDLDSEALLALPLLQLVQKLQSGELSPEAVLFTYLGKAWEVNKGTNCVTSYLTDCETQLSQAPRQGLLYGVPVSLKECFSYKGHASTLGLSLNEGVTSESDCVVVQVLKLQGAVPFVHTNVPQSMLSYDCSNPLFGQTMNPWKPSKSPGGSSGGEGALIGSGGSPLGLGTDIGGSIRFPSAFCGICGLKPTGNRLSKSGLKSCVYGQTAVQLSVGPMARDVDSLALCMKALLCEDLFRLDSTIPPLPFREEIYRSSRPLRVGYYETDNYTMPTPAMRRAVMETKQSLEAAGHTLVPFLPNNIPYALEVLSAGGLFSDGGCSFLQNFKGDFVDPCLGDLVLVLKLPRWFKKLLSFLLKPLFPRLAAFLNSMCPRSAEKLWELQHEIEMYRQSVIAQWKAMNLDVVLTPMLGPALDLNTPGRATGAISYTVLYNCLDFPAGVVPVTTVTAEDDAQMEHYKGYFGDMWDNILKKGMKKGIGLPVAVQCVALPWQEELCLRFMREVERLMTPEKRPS
# test.protocol: In vivo FAAH inhibition after oral dosing, remaining activity in liver homogenate (LVh, peripheral tissue)
# Design: species or system NMRI mice
# test.parameters: liver homogenate, 3 mg/kg, 8 h after dosing; low value = strong inhibitor
property.label: In Vivo LVh 3 mg·kg 8 h (remaining FAAH activity, % of control)

smiles | endpoint.value
CC1(C)COCN1C(=O)n1cnc(-c2cccc(O)c2)c1 | 24.5 % of control
CN(C(=O)n1cnc(-c2cccnc2)c1)C1CCN(CCc2ccccc2)CC1 | 2 % of control
CN(C(=O)n1cnc(-c2ccc(O)cc2)c1)C1CCN(C(=O)OC(C)(C)C)CC1 | 0.7 % of control
CN(C(=O)n1cnc(-c2cccc(C(=O)NO)c2)c1)C1CCN(Cc2ccccc2)CC1 | 2.1 % of control
CC1(C)COCN1C(=O)n1cnc(-c2ccc(O)c(F)c2)c1 | 19.5 % of control
CN(C(=O)n1cnc(-c2ccc3c(c2)[nH]c(=O)n3Cc2ccccc2)c1)C1CCCCC1 | 115.8 % of control
CN(C(=O)n1cnc(-c2cccnc2)c1)C1CCCCC1 | 1 % of control
Br.CN(C(=O)n1cnc(-c2ccc(O)c(F)c2)c1)C1CCN(Cc2ccccc2)CC1 | 3 % of control
